Task for the reader: assign each of the following molecules its reported RBC SI.
test system: Red blood cells; assay: Hemolytic activity (red blood cell lysis assay); details: selectivity index vs M. tuberculosis MIC50

Query :: Requested read-out: RBC SI. Entry: Cc1nc(-c2c[nH]c3ccccc23)cs1 [Fragment 9]
Result :: >18

Query :: Returns the measured RBC SI for the input molecule. Input: COn1c(-c2ccc(Cl)cc2)nc2ncccc21 [Fragment 7]
Result :: >23

Query :: # get_value(readout='RBC SI', item= COc1cccc2sc(S(C)(=O)=O)nc12 [Fragment 3] )
Result :: >13

Query :: For the molecule CCNc1nc(C)nc2sc(CC)cc12 [Fragment 1] , what RBC SI is on record?
Result :: >24

Query :: Data request, read-out RBC SI, for CC1CC(N)=NN1c1ccc(Cl)cn1 (centres unmarked) [Fragment 8]
Result :: >20

Query :: // lookup RBC SI for O=C(c1cc2cc(F)ccc2s1)N1CCC1 [Fragment 5]
Result :: >41

Query :: Param item = Cc1cc2nc(CN)[nH]c2cc1C [Fragment 10] ; retrieve measured RBC SI.
Result :: 16

Query :: Which RBC SI is reported for this molecule? N#CSC1C=CS(=O)(=O)C1 (centres unmarked) [Fragment 6]
Result :: 24

Values from paper PMC5013068
